Hello, the source for this data is patent US8901120B2, in case you need it.

Test system: PANC-1
method description: Cell viability assay (ATP-Lite), PANC-1
Type: cell-based
assay setup: Homo sapiens; PANC-1, 96 hours
measurement type: IC50
Please report the result as a number followed by the unit.

### Prompt Bench note: what IC50 did `CN1CCN(Cc2ccc(Nc3ncc(Cl)c(Nc4ccc(F)cc4S(=O)(=O)N4CCCC4)n3)cc2)CC1` show?
### Response 93 nM

### Prompt Note, next up: `CN1CCN(Cc2ccc(Nc3ncc(Cl)c(-c4ccc(F)cc4S(=O)(=O)N4CCCC4)n3)cc2)CC1`
### Response 481 nM

### Prompt Note, next up: `CN1CCN(Cc2ccc(Nc3ncc(Cl)c(Nc4ccccc4S(=O)(=O)N(C)C)n3)cc2)CC1`
### Response 38 nM

### Prompt Note, next up: `CN1CCC(N(C)c2ccc(Nc3ncc(Cl)c(Nc4ccccc4S(=O)(=O)N(C)C)n3)cc2)CC1`
### Response 80 nM

---

System: PL45
method description: Cell viability assay (ATP-Lite), PL45
Assay type: cell-based
assay setup: Homo sapiens; PL45, 96 hours
Below, each entry is listed with its recorded pIC50.
pIC50 here is simply -log10 of the concentration when that concentration is written in mol/L.

Known results for compounds:
Cc1cnc(Nc2ccc(CN3CCN(C)CC3)cc2)nc1-c1ccc(F)c(Cl)c1	4.84
CN1CCN(Cc2ccc(Nc3ncc(Cl)c(Nc4ccccc4C(=O)N4CCCC4)n3)cc2)CC1	7.85

### Prompt Bench note: what pIC50 did `CN1CCN(Cc2ccc(Nc3ncc(Cl)c(Nc4ccccc4S(=O)(=O)N4CCCC4)n3)cc2)CC1` show?
### Response 7.33

### Prompt Note, next up: `CN1CCN(Cc2ccc(Nc3ncc(Cl)c(Nc4ccc(F)cc4S(=O)(=O)N4CCCC4)n3)cc2)CC1`
### Response 7.77

### Prompt Note, next up: `CN1CCN(Cc2ccc(Nc3ncc(Cl)c(Nc4ccccc4C(=O)N(C)C)n3)cc2)CC1`
### Response 7.02

### Prompt Note, next up: `Cc1cnc(Nc2ccc(CN3CCN(C)CC3)cc2)nc1-c1ccc(C(C)(C)C#N)cc1`
### Response 5.09

### Prompt Note, next up: `CN1CCN(Cc2ccc(Nc3ncc(Cl)c(Nc4ccccc4C(=O)NC4CC4)n3)cc2)CC1`
### Response 8.52

### Prompt Note, next up: `Cc1cnc(Nc2ccc(CN3CCN(C)CC3)cc2)nc1-c1cccc(Cl)c1`
### Response 5.32

### Prompt Note, next up: `Cc1cnc(Nc2ccc(N(C)C3CCN(C)CC3)cc2)nc1-c1ccc(F)c(Cl)c1`
### Response 4.86

---

Test system: HepG2
method description: Cell viability assay (ATP-Lite), HepG2
Format: cell-based
assay setup: Homo sapiens; HepG2, 96 hours
Method: All cell lines were cultured in media as recommended by American Type Culture Collection (“ATCC”; supplemented with 10% fetal bovine serum (“FBS”) and 1% penicillin/streptomycin (100 IU/ml pencillin and 100 μg/ml streptomycin) at 37° C. and 5% CO2. The cell lines used in these studies included those indicated in Table II below. […] IC50 values are determined using GraphPad Prism 5 software. […]
Below, each entry is listed with its recorded IC50.

Known results for compounds:
CN1CCN(Cc2ccc(Nc3ncc(Cl)c(Nc4ccc(F)cc4S(=O)(=O)N4CCCC4)n3)cc2)CC1 [Compound 3]	43 nM
CN1CCN(Cc2ccc(Nc3ncc(Cl)c(Nc4ccccc4S(=O)(=O)N(C)C)n3)cc2)CC1 [Compound 4]	6 nM
CN1CCN(Cc2ccc(Nc3ncc(Cl)c(Nc4ccccc4S(=O)(=O)N4CCCC4)n3)cc2)CC1 [Compound 1]	121 nM
CN1CCN(Cc2ccc(Nc3ncc(Cl)c(-c4ccc(F)cc4S(=O)(=O)N4CCCC4)n3)cc2)CC1 [Compound 9]	527 nM

### Prompt Bench note: what IC50 did CN1CCN(Cc2ccc(Nc3ncc(Cl)c(Nc4ccccc4C(=O)N(C)C)n3)cc2)CC1 [Compound 7] show?
### Response 57 nM

### Prompt Note, next up: CN1CCN(Cc2ccc(Nc3ncc(Cl)c(Nc4ccccc4C(=O)NC4CC4)n3)cc2)CC1 [Compound 2]
### Response 303 nM

### Prompt Note, next up: CN1CCN(Cc2ccc(Nc3ncc(Cl)c(Nc4ccccc4C(=O)N4CCCC4)n3)cc2)CC1 [Compound 6]
### Response 194 nM
